# System: SF-295 CNS
# method summary: NCI tumour cell line growth inhibition, 48 h
Answer each item with its documented TGI.
The reply should contain only the number, in µM.

Lookup: Given the compound O=[N+]([O-])c1cc(C(F)(F)F)cc2n[se]nc12 , what is its reported TGI?
Found: 25.8

Lookup: Given the compound CC(C)(CN1CCCCC1)C(=O)CC(SCCS(=O)(=O)O)c1ccccc1 (stereo not given) , what is its reported TGI?
Found: 26.5

Lookup: Given the compound C[N+]1(C)C/C(=C\C=C\c2ccccc2)C(=O)/C(=C/C=C/c2ccccc2)C1 , what is its reported TGI?
Found: 81.7

Lookup: Given the compound COc1cc2c(c(OC)c1)C(=O)C(=O)C(CC1(C)OCCCO1)=C2 , what is its reported TGI?
Found: 27.1

Lookup: Given the compound Cc1cc(C(=O)CC(Cl)=C(Cl)Cl)c(Cl)cc1Cl , what is its reported TGI?
Found: 54.8

Lookup: Given the compound COc1cccc(C2c3cc4c(cc3OC(NNC(N)=O)C2C)OCO4)c1OC (stereo not given) , what is its reported TGI?
Found: 43.3

Lookup: Given the compound C[C@H]1[C@H](C)CC[C@]2(C(=O)O)CCC3(COC(=O)/C=C/c4ccc(O)cc4)C(=CCC4[C@@]5(C)CC[C@H](O)C(C)(C)C5CC[C@]43C)[C@H]12 (stereo not given in full) , what is its reported TGI?
Found: 13.2

Lookup: Given the compound COc1ccc2[nH]cc(C3(c4c[nH]c5ccc(OC)cc45)C(=O)Nc4ccc(Cl)cc43)c2c1 , what is its reported TGI?
Found: 6.26

Lookup: Given the compound CCC/C=C/C=C\C(=O)O[C@@H]1[C@@H](C)[C@]2(O)[C@@H]3C=C(C)C(=O)[C@H]3CC(COC(C)=O)=C[C@H]2[C@@H]2C(C)(C)[C@]12OC(C)=O , what is its reported TGI?
Found: 39.5

Lookup: Given the compound COc1ccc(C(=O)/C=C/c2c(C(F)(F)F)nc3ccccn23)cc1OC , what is its reported TGI?
Found: 42.5

Lookup: Given the compound Nc1nc(N)c(CCCCc2ccccc2)c(/C=C/c2ccc([N+](=O)[O-])cc2)n1 , what is its reported TGI?
Found: 14.5

###

# Tested on: A498 renal
# method summary: NCI tumour cell line growth inhibition, 48 h
Answer each item with its documented GI50.

Lookup: Given the compound Cn1c2ccccc2c2c(=O)n(CCCC(=O)NCCc3cnc[nH]3)c3c(-c4ccccc4)nnn3c21 , what is its reported GI50?
Found: 7.58 µM

Lookup: Given the compound Cl.[O-]c1cccc2cccnc12.[O-]c1cccc2cccnc12.[O-]c1cccc2cccnc12.[O-]c1cccc2cccnc12.[Ti+4] , what is its reported GI50?
Found: 8.24 µM

Lookup: Given the compound Fc1ccc(-c2c(-c3ccncc3)[nH]c3cccnc23)cc1 , what is its reported GI50?
Found: > 14.8 µM

Lookup: Given the compound CN1CCN(C(=O)[C@@]2(C)CC[C@]3(C)CC[C@]4(C)C(=CC[C@@H]5[C@@]6(C)CC[C@H](OC(=O)c7cccnc7)C(C)(C)[C@@H]6CC[C@]54C)[C@@H]3C2)CC1 , what is its reported GI50?
Found: 4.38 µM

Lookup: Given the compound CCN(CC)CCNc1ccc(N=Nc2cnc3ccccc3c2)c2ccccc12 , what is its reported GI50?
Found: 1.65 µM

Lookup: Given the compound O=C(C(=O)c1cccnc1)c1cccnc1 , what is its reported GI50?
Found: > 100 µM

Lookup: Given the compound Cc1cc(C(=O)CC(Cl)=C(Cl)Cl)c(Cl)cc1Cl , what is its reported GI50?
Found: 18.2 µM

Lookup: Given the compound CCOP(=O)(OCC)C(NC(c1ccccc1)c1ccccc1)c1ccsc1 (stereo not drawn) , what is its reported GI50?
Found: 30.8 µM
